Listing: Population Membrane Permeable-Phenotype (%) of selected compounds
System: Fibroblast
Assay: Multiplex assay against human fibroblast
Assay type: toxicity, cell-based
Conditions: 24 h, 1 µM, compound concentration 1 uM, replicate 1
Your answer should be a plain number; it is taken to be in %.

COc1cccc2c1c(NS(=O)(=O)c1ccc(Cl)s1)nn2Cc1cccc(CNC(=O)C(C)(C)O)c1; 2
CC(=O)Nc1cccc2c1c(Sc1ccc(Cl)cc1)c(C)n2CC(=O)O [AZD1981]; 2
CC(C)c1noc(N2CCC(COc3ccc(-c4ccc(S(C)(=O)=O)cc4)nc3)CC2)n1 [GSK-1292263]; 1

Please supply the value of reported Population Membrane Permeable-Phenotype (%) for the item `CN(C)C(=O)Cn1cc(-c2ccc(-c3cncc4ccccc34)cc2)cn1`
0

Provide one value: measured Population Membrane Permeable-Phenotype (%) of `Cc1onc(-c2ccccc2Cl)c1C(=O)N(C)c1ccc(Cl)cc1`
0

Return value of Population Membrane Permeable-Phenotype (%) for input CC(C)(C)c1cc(NC(=O)Nc2ccc(-c3cn4c(n3)sc3cc(OCCN5CCOCC5)ccc34)cc2)no1 [QUIZARTINIB] , no commentary.
0

Output Population Membrane Permeable-Phenotype (%) of CC[C@@H](C)Nc1nc(C)nc2c(-c3ccc(OC)nc3C)c(C)nn12 [PEXACERFONT]
0

Give the value of Population Membrane Permeable-Phenotype (%) reported for the following: `CCCCC(=O)N(Cc1ccc(-c2ccccc2-c2nnn[nH]2)cc1)[C@H](C(=O)O)C(C)C`
1

###

Tested on: HEK-293T
Assay: Multiplex assay against HEK293T
Type: toxicity, cell-based
Details: human, 48 h, 10 µM, compound concentration 10 uM, replicate 1
quantity.name: Population Pyknosed Nuclei (%)

CC[C@@H](C)Nc1nc(C)nc2c(-c3ccc(OC)nc3C)c(C)nn12; 9%

Tell me Population Pyknosed Nuclei (%) reported for Cl.N=C(N)NC(=O)Cc1c(Cl)cccc1Cl [GUANFACINE HYDROCHLORIDE]
9%

Please indicate Population Pyknosed Nuclei (%) recorded for `CCCCC1=NC2(CCCC2)C(=O)N1Cc1ccc(-c2ccccc2-c2nnn[nH]2)cc1`
9%

###

Readings of Total Cell Count for the listed molecules
Test system: HEK-293T
Test: Multiplex assay against HEK293T
Assay type: toxicity, cell-based
Conditions: human, 48 h, 1 µM, compound concentration 1 uM, replicate 1

Field: example entries. Status: answers known.
Cl.NCCc1ccc(O)c(O)c1 [DOPAMINE HYDROCHLORIDE]; 785
O=C(CCCc1ccccc1)Nc1nc2ccccc2c(=O)s1; 820

Let's switch to this molecule now.
Specify measured Total Cell Count for CC[C@@H](C)Nc1nc(C)nc2c(-c3ccc(OC)nc3C)c(C)nn12 [PEXACERFONT] .
816

###

Tested on: U2OS
Assay: Multiplex assay against U2OS
Type: toxicity, cell-based
Conditions: human, 12 h, 10 µM, compound concentration 10 uM, replicate 2
Each record is given true (1) if its reported Population Mitotic Cells (%) is strictly below 20%. Records at or above 20% are given false (0).

Observe how each entry below is paired with its result.
N#Cc1c(Oc2cccc(OS(=O)(=O)CCCC(F)(F)F)c2)cccc1C(F)(F)F; true (1)
Cl.N=C(N)NC(=O)Cc1c(Cl)cccc1Cl [GUANFACINE HYDROCHLORIDE]; false (0)
CN(C)C(=O)Cn1cc(-c2ccc(-c3cncc4ccccc34)cc2)cn1; true (1)
Cc1cccc(NC(=O)CN2CCC(c3ccccn3)CC2)c1.Cl.Cl; false (0)
Cc1c(CC(=O)O)c2cccnc2n1Cc1ccc(S(C)(=O)=O)cc1C(F)(F)F; true (1)

Find out if reported Population Mitotic Cells (%) for `C[C@H](N)COC(=O)[C@@H](CCCCN)NC(=O)Cc1c(-c2ccc3ccccc3c2)[nH]c2c1ccc1ccccc12` is less than 20%
false (0)

Given the entry `CCCCC1=NC2(CCCC2)C(=O)N1Cc1ccc(-c2ccccc2-c2nnn[nH]2)cc1` , would its reported Population Mitotic Cells (%) be below 20%?
true (1)

Bench note: check whether `N#Cc1cc(F)cc(-c2nc(-c3ccc(F)cn3)no2)c1` shows Population Mitotic Cells (%) below 20%
true (1)

###

Test system: HEK-293T
Assay: Multiplex assay against HEK293T
Format: toxicity, cell-based
Conditions: human, 12 h, 10 µM, compound concentration 10 uM, replicate 2
quantity.name: Population Hoechst High Intensity Objects (%)
Your answer should be a plain number; it is taken to be in %.

# example entries with known answers
NCCc1cn(S(=O)(=O)c2c(Cl)nc3sccn23)c2ccccc12.O=C(O)C(=O)O; 25
Cl.N=C(N)NC(=O)Cc1c(Cl)cccc1Cl [GUANFACINE HYDROCHLORIDE]; 10

For the compound `CN1CCN(c2cc(-c3ccccc3)nc(N)n2)CC1` , report Population Hoechst High Intensity Objects (%).
10

Write down Population Hoechst High Intensity Objects (%) measured for item `CCCCC1=NC2(CCCC2)C(=O)N1Cc1ccc(-c2ccccc2-c2nnn[nH]2)cc1`
13

Indicate the recorded Population Hoechst High Intensity Objects (%) value for this compound: Cl.NCCc1ccc(O)c(O)c1 [DOPAMINE HYDROCHLORIDE]
5

###

Test system: U2OS
Assay: Multiplex assay against U2OS
Type: toxicity, cell-based
Conditions: human, 48 h, 1 µM, compound concentration 1 uM, replicate 2
Examples of compounds with documented Population Normal (%) follow.
Please give a number only; it is taken to be in %.

CC[C@@H](C)Nc1nc(C)nc2c(-c3ccc(OC)nc3C)c(C)nn12; 97
CC(C)(C)c1cc(NC(=O)Nc2ccc(-c3cn4c(n3)sc3cc(OCCN5CCOCC5)ccc34)cc2)no1; 97
CN1CCN(c2cc(-c3ccccc3)nc(N)n2)CC1; 96

For the compound `O=C1[C@H](Cc2ccc(O)cc2)N2C(=O)CCN(C(=O)NCc3ccccc3)[C@H]2CN1Cc1cccc2ccccc12` , report Population Normal (%).
94

###

Tested on: U2OS
Assay: Multiplex assay against U2OS
Assay type: toxicity, cell-based
Details: human, 12 h, 10 µM, compound concentration 10 uM, replicate 1
Quick rule: Population Healthy Nuclei (%) of at least 60% means fulfilled, below that means not fulfilled.

Completed entries (count: 8):
CC(=O)Nc1cccc2c1c(Sc1ccc(Cl)cc1)c(C)n2CC(=O)O [AZD1981]; fulfilled
O=C(NCCN1CCC(n2c(=O)[nH]c3cc(Cl)ccc32)CC1)c1ccc(F)cc1 [HALOPEMIDE]; fulfilled
CC(C)(C)c1cc(NC(=O)Nc2ccc(-c3cn4c(n3)sc3cc(OCCN5CCOCC5)ccc34)cc2)no1 [QUIZARTINIB]; not fulfilled
Cc1onc(-c2ccccc2Cl)c1C(=O)N(C)c1ccc(Cl)cc1; not fulfilled
CCC(=O)N1CCN(c2ccc(-n3c(=O)ccc4cnc5ccc(-c6cnc7ccccc7c6)cc5c43)cc2C(F)(F)F)CC1 [TORIN1]; not fulfilled
Br.CS(=O)(=O)Nc1c(O)ccc2c1CCCC2C1=NCCN1 (configuration not stated); not fulfilled
COC[C@@H](c1ccc(C(F)(F)F)cc1)N1CCN(C2(C)CCN(C(=O)c3c(C)ncnc3C)CC2)C[C@@H]1C.O=C(O)/C=C\C(=O)O [VICRIVIROC MALEATE]; fulfilled
Cc1c(CC(=O)O)c2cccnc2n1Cc1ccc(S(C)(=O)=O)cc1C(F)(F)F [FEVIPIPRANT]; fulfilled

Evaluate `C[C@H](N)COC(=O)[C@@H](CCCCN)NC(=O)Cc1c(-c2ccc3ccccc3c2)[nH]c2c1ccc1ccccc12` : Population Healthy Nuclei (%) at minimum 60%?
fulfilled

Check if Population Healthy Nuclei (%) >= 60% (inclusive). Item: CC[C@@H](C)Nc1nc(C)nc2c(-c3ccc(OC)nc3C)c(C)nn12 [PEXACERFONT]
fulfilled

In plain terms: is recorded Population Healthy Nuclei (%) at least 60% for `COc1ccccc1N1CCN(C[C@@H](C(=O)NC(C)(C)C)c2ccccc2)CC1.Cl.Cl` ?
not fulfilled

###

System: HEK-293T
Test: Multiplex assay against HEK293T
Format: toxicity, cell-based
Conditions: human, 12 h, 10 µM, compound concentration 10 uM, replicate 1
Quick reference: Population Pyknosed Nuclei (%) of the listed items.
Write it as a number; the unit % goes unstated.

Known Population Pyknosed Nuclei (%) results, listed for orientation:
O=C1[C@H](Cc2ccc(O)cc2)N2C(=O)CCN(C(=O)NCc3ccccc3)[C@H]2CN1Cc1cccc2ccccc12; 20
Cl.N=C(N)NC(=O)Cc1c(Cl)cccc1Cl [GUANFACINE HYDROCHLORIDE]; 20
O=C(NCCN1CCC(n2c(=O)[nH]c3cc(Cl)ccc32)CC1)c1ccc(F)cc1 [HALOPEMIDE]; 20
Cc1noc(-c2ccc(-c3ccc(CC(=O)O)cc3)cc2)c1NC(=O)O[C@H](C)c1ccccc1Cl; 20

// switching to the query compound
Retrieve Population Pyknosed Nuclei (%) measured for `CN[C@@H](C)C(=O)N[C@H](C(=O)N1CCC[C@H]1C(=O)Nc1snnc1-c1ccccc1)C1CCCCC1` and print it.
20
